Documented pIC50 across a set of molecules
Biological target: recombinant human GST-SYK (Homo sapiens)
Construct: purchased Carna Biosciences 08-176
Assay: Homogeneous Time-Resolved Fluorescence (HTRF) assay for the recombinant human Syk enzyme
Assay type: biochemical
Conditions: GST-hSYK 5 pM, ATP 25 μM, 10-dose titration 10 μM to 0.508 nM; read-out: rhSYK Activity (IC50 rating)
Experimental: Homogeneous Time-Resolved Fluorescence (HTRF) Assay for the Recombinant Human Syk Enzyme A recombinant GST-hSYK fusion protein was used to measure potency of compounds to inhibit human Syk activity. […] Final volume of the reaction was 10 μL. Phosphorylation of the peptide was allowed to proceed for 45 minutes at room temperature. […] The resulting HTRF signal was measured after 30 minutes on an EnVision (Perkin-Elmer) reader using a time-resolved fluorescence protocol.
pIC50: −log10 of the molar value.

Consider the reported pIC50 for these molecules:
Exam item: Query: pIC50; subject: Cc1cc(C)nc(Nc2cc(NCC(N)C3CC3)cnc2C(N)=O)c1 (centres unmarked)
Marked response: > 8.00

Exam item: Query: pIC50; subject: NC(=O)c1ncc(N[C@@H]2CCCC[C@@H]2N)cc1Nc1cccc(-c2ccccc2)n1
Marked response: > 8.00

Exam item: Query: pIC50; subject: Cc1nc(Nc2cc(N[C@@H]3CCCC[C@@H]3N)cnc2C(N)=O)ccc1-c1ccc2c(=O)nc[nH]c2c1
Marked response: > 8.00

Further cases:
Exam item: Query: pIC50; subject: Cc1cc(C)nc(Nc2cc(NC(C)C(N)=O)cnc2C(N)=O)c1 (centres unmarked)
Marked response: 7.00 to 8.00

Exam item: Query: pIC50; subject: Cc1nc(Nc2cc(N[C@@H]3CCCC[C@@H]3N)cnc2C(N)=O)ccc1-c1cccc(N2CCN(C)CC2)c1
Marked response: > 8.00

Exam item: Query: pIC50; subject: Cc1cc(C)nc(Nc2cc(NCC(N)C(F)F)cnc2C(N)=O)c1 (centres unmarked)
Marked response: 7.00 to 8.00

Exam item: Query: pIC50; subject: Cc1ccc(-n2nc(Nc3cc(N[C@@H]4CCCC[C@@H]4N)cnc3C(N)=O)cc2C)cc1
Marked response: > 8.00

Exam item: Query: pIC50; subject: COC[C@H](N)CNc1cnc(C(N)=O)c(Nc2ccn(C)n2)c1
Marked response: 6.00 to 7.00

Exam item: Query: pIC50; subject: NC(=O)c1ncc(N[C@@H]2CCCC[C@@H]2N)cc1Nc1cccc(-c2ccccn2)n1
Marked response: > 8.00

Exam item: Query: pIC50; subject: Cn1ncc(Nc2cc(N[C@@H]3CCCC[C@@H]3N)cnc2C(N)=O)n1
Marked response: 7.00 to 8.00

Exam item: Query: pIC50; subject: Cc1cc(C)nc(Nc2cc(NC(CN)c3ccccc3)cnc2C(N)=O)c1 (centres unmarked) [Example 1.21]
Marked response: > 8.00

Exam item: Query: pIC50; subject: NCCNc1cnc(C(N)=O)c(Nc2cccc(-n3nccn3)n2)c1
Marked response: > 8.00

---

biological target: recombinant human GST-SYK (Homo sapiens, UniProt P43405); construct: purchased Carna Biosciences 08-176; test: Homogeneous Time-Resolved Fluorescence (HTRF) assay for the recombinant human Syk enzyme; assay type: biochemical; settings: GST-hSYK 5 pM, ATP 25 μM, 10-dose titration 10 μM to 0.508 nM; read-out: rhSYK Activity (IC50 rating)
OUTCOME MEASURE: IC50

Consider the reported IC50 for these molecules:
Exam item: Query: IC50; subject: CC(C)(O)COCc1cccc(Nc2cc(N[C@@H]3CCCC[C@@H]3N)cnc2C(N)=O)n1
Marked response: < 10 nM

Exam item: Query: IC50; subject: NC(=O)c1ncc(N[C@H]2[C@@H](N)CCCC2(F)F)cc1Nc1ccn(-c2ccc(F)cc2)n1
Marked response: < 10 nM

Exam item: Query: IC50; subject: C[C@H](N)CNc1cnc(C(N)=O)c(Nc2ccn(-c3ccc(F)cc3)n2)c1
Marked response: < 10 nM

Exam item: Query: IC50; subject: NC(=O)c1ncc(N[C@@H]2CCCC[C@@H]2N)cc1Nc1ccn(Cc2ccccc2)n1
Marked response: 10 to 100 nM

Exam item: Query: IC50; subject: Cc1cc(C)nc(Nc2cc(NCC(N)C(=O)N(C)C)cnc2C(N)=O)c1 (stereo not shown)
Marked response: 100 to 1000 nM

Further cases:
Exam item: Query: IC50; subject: Cc1nc(Nc2cc(N[C@@H]3CCCC[C@@H]3N)cnc2C(N)=O)ccc1-c1ccc2c(c1)n(C)c(=O)n2C
Marked response: < 10 nM

Exam item: Query: IC50; subject: CCNC(=O)Nc1cnc(C(N)=O)c(Nc2cc(C)cc(C)n2)c1
Marked response: 100 to 1000 nM

---

molecular target: recombinant human GST-SYK (Homo sapiens, UniProt P43405); construct: purchased Carna Biosciences 08-176; experiment: Homogeneous Time-Resolved Fluorescence (HTRF) assay for the recombinant human Syk enzyme; type: biochemical; conditions: GST-hSYK 5 pM, ATP 25 μM, 10-dose titration 10 μM to 0.508 nM; read-out: rhSYK Activity (IC50 rating)
Documented IC50 across a set of compounds

Consider the reported IC50 for these compounds:
Exam item: Query: IC50; subject: Cc1cc(C)nc(Nc2cc(NCC3(N)CCOCC3)cnc2C(N)=O)c1 [Example 1.34]
Marked response: 0.01 to 0.1 µM

Exam item: Query: IC50; subject: NC(=O)c1ncc(N[C@@H]2CCCC[C@@H]2N)cc1Nc1ccn(-c2ccccn2)n1 [Example 1.81]
Marked response: < 0.01 µM

Further cases:
Exam item: Query: IC50; subject: COc1ccc(Nc2cc(N[C@@H]3CCCC[C@@H]3N)cnc2C(N)=O)nc1C [Example 1.111]
Marked response: < 0.01 µM

Exam item: Query: IC50; subject: Cc1cc(C)nc(Nc2cc(N[C@@H]3CCOC[C@@H]3N)cnc2C(N)=O)c1 [Example 1.130]
Marked response: < 0.01 µM

Exam item: Query: IC50; subject: Cc1nc(Nc2cc(N[C@@H]3CCCC[C@@H]3N)cnc2C(N)=O)ccc1-c1cccc(C(O)C(F)(F)F)c1 (some centres unmarked) [Example 3.11]
Marked response: < 0.01 µM

Exam item: Query: IC50; subject: Cc1cncc(Nc2cc(N[C@@H]3CCCC[C@@H]3N)cnc2C(N)=O)n1 [Example 1.121]
Marked response: < 0.01 µM

Exam item: Query: IC50; subject: COc1ncc(-c2ccc(Nc3cc(N[C@@H]4CCCC[C@@H]4N)cnc3C(N)=O)nc2C)cn1 [Example 3.24]
Marked response: < 0.01 µM

---

biological target: recombinant human GST-SYK (Homo sapiens, UniProt P43405); construct: purchased Carna Biosciences 08-176; test: Homogeneous Time-Resolved Fluorescence (HTRF) assay for the recombinant human Syk enzyme; type: biochemical; conditions: GST-hSYK 5 pM, ATP 25 μM, 10-dose titration 10 μM to 0.508 nM; read-out: IC50
OUTCOME MEASURE: IC50

Consider the reported IC50 for these compounds:
Exam item: Fill in the recorded IC50 for this compound, with recombinant human GST-SYK (Homo sapiens, UniProt P43405) as test system: Cn1ccc(Nc2cc(N[C@H]3[C@@H](N)CCCC3(F)F)cnc2C(N)=O)n1 [Example 1.86]
Marked response: 0.063 µM

Exam item: Fill in the recorded IC50 for this compound, with recombinant human GST-SYK (Homo sapiens, UniProt P43405) as test system: Cc1cc(C)nc(Nc2cc(N[C@H]3CC[C@@H]3N)cnc2C(N)=O)c1 (relative stereo) [Example 1.116]
Marked response: 0.055 µM

Exam item: Fill in the recorded IC50 for this compound, with recombinant human GST-SYK (Homo sapiens, UniProt P43405) as test system: CCC(CN)Nc1cnc(C(N)=O)c(Nc2ccn(C)n2)c1 (centres unmarked) [Example 1.95]
Marked response: 0.12 µM

Exam item: Fill in the recorded IC50 for this compound, with recombinant human GST-SYK (Homo sapiens, UniProt P43405) as test system: Cc1cc(C)nc(Nc2cc(N[C@@H]3C[C@H]3N)cnc2C(N)=O)c1 (relative stereo) [Example 2.13]
Marked response: 0.77 µM

Exam item: Fill in the recorded IC50 for this compound, with recombinant human GST-SYK (Homo sapiens, UniProt P43405) as test system: Cc1nc(Nc2cc(N[C@@H]3CCCC[C@@H]3N)cnc2C(N)=O)ccc1-c1ccccc1 [Example 3.2]
Marked response: 0.0039 µM

Further cases:
Exam item: Fill in the recorded IC50 for this compound, with recombinant human GST-SYK (Homo sapiens, UniProt P43405) as test system: Cc1ccc(Nc2cc(N[C@@H]3CCCC[C@@H]3N)cnc2C(N)=O)nc1C [Example 1.6]
Marked response: 0.00053 µM

Exam item: Fill in the recorded IC50 for this compound, with recombinant human GST-SYK (Homo sapiens, UniProt P43405) as test system: Cc1nc(C)c(Cl)c(Nc2cc(N[C@@H]3CCCC[C@@H]3N)cnc2C(N)=O)n1 [Example 1.126]
Marked response: 1.3 µM

Exam item: Fill in the recorded IC50 for this compound, with recombinant human GST-SYK (Homo sapiens, UniProt P43405) as test system: Cc1cc(C)nc(Nc2cc(N[C@@H](CC(C)C)C(N)=O)cnc2C(N)=O)c1 [Example 1.46]
Marked response: 0.0078 µM
